Biological target: Voltage-gated inwardly rectifying potassium channel KCNH2 (Homo sapiens)
Sequence (Q12809 whole entry): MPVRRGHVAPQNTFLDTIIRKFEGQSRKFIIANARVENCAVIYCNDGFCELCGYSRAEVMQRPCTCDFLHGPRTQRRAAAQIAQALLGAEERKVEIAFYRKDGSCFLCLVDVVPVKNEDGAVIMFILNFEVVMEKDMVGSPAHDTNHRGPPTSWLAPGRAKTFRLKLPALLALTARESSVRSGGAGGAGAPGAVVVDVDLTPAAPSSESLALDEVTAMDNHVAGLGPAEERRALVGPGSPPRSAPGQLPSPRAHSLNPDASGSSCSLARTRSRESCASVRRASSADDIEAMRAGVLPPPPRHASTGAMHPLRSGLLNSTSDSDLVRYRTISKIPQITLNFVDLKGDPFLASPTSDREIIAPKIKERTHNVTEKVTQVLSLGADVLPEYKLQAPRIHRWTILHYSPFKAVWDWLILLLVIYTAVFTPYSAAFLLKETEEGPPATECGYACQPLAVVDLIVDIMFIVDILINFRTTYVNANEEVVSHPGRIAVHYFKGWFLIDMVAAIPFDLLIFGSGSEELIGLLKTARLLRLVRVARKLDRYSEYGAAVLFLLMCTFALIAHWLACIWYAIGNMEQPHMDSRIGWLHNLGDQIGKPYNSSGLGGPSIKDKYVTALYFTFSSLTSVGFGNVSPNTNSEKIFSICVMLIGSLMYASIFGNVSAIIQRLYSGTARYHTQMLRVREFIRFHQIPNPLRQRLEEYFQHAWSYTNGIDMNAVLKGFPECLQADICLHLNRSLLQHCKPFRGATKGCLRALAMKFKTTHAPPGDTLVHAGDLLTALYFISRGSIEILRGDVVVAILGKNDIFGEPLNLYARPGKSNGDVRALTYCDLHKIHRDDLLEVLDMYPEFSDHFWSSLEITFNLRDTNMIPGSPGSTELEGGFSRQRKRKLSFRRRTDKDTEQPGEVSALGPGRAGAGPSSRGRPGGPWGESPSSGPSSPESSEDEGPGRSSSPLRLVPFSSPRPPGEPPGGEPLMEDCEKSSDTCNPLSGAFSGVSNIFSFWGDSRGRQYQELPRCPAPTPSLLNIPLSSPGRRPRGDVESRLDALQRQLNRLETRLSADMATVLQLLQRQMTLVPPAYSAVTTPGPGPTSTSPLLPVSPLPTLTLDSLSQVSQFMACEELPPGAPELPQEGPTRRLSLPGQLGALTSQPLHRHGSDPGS
Assay: Inhibition of hERG by patch clamp method
Format: toxicity
Please go through the items and note down their pIC50.
One number for each entry, as −log10 of the molar value.

CC(C)Oc1cc2nc(C34COC(C)(C3)C4)cn2cc1C(=O)Nc1cccc(C(F)F)n1 | 5.66
CC(C)Oc1nc2nc(C34COC(C)(C3)C4)cn2cc1C(=O)Nc1cnn2cc(F)cnc12 | 4.74
CCOc1cc2nc(C34COC(C)(C3)C4)cn2cc1NC(=O)c1cccc(C(F)F)n1 | 6.11

Proceed to the following item.
The molecule listed as CC(C)Oc1nc2nc(C34COC(C)(C3)C4)cn2cc1C(=O)Nc1cnn2cccnc12 shows pIC50 equal to 4.71

###

Assay: Volume of distribution at steady state in cynomolgus monkey at 1 mg/kg, iv by LC-MS/MS analysis
Type: ADME, organism-based, Macaca fascicularis
Settings: in vivo, read-out: Vdss
assay metric: Vd (L/kg)
Answers are plain numbers, in L/kg.

The compound listed as Cc1cnc2c(NC(=O)c3cn4cc(C56COC(C)(C5)C6)nc4nc3OC(C)C)cnn2c1 shows Vd equal to 1.7

###

Assay: Oral bioavailability in dog at 1 mg/kg by LC-MS/MS analysis
Assay type: ADME, organism-based, Canis lupus familiaris
Settings: in vivo
assay metric: bioavailability
Please answer using the number first and the unit second.

The compound listed as Cc1cnc2c(NC(=O)c3cn4cc(C56COC(C)(C5)C6)nc4nc3OC(C)C)cnn2c1 shows bioavailability equal to 96%

###

Please go through the items and note down their log10(clearance).
Experiment: Clearance in rat at 1 mg/kg, iv by LC-MS/MS analysis
Type: ADME, organism-based
Conditions: in vivo
Recorded clearance (log10, L/h/kg)

Please review the entries below; each comes with its answer.
CC(C)Oc1nc2nc(C34COC(C)(C3)C4)cn2cc1C(=O)Nc1cnn2cc(F)cnc12 | -0.36
Cc1cc2nc(C3CCOCC3)cn2cc1NC(=O)c1cccc(C(F)F)n1 | -0.02
CC(C)Oc1nc2nc(C34COC(C)(C3)C4)cn2cc1C(=O)Nc1cnn2cccnc12 | -0.22

Would you mind giving log10(clearance) for every molecule in the list below?
1. COc1cc(NC(=O)c2cccc(C(F)(F)F)n2)cn2cc(C3CCOCC3)nc12
2. CC(C)Oc1cc2nc(C34COC(C)(C3)C4)cn2cc1C(=O)Nc1cnn2cccnc12
3. CC(C)Oc1cc2nc(C3CCOCC3)cn2cc1NC(=O)c1cccc(C(F)F)n1
4. Cc1cnc2c(NC(=O)c3cn4cc(C56COC(C)(C5)C6)nc4c(F)c3OC(C)C)cnn2c1
5. CC(C)Oc1cc2nc(C34COC(C)(C3)C4)cn2cc1C(=O)Nc1cccc(C(F)F)n1
6. Cc1cc(NC(=O)c2cccc(C(F)F)n2)cn2cc(C3CCOCC3)nc12
7. Cc1cnc2c(NC(=O)c3cn4cc(C56COC(C)(C5)C6)nc4nc3OC(C)C)cnn2c1

Result block:
-0.22
-0.18
0.12
-0.81
-0.05
0.08
-0.90

Would you mind giving log10(clearance) for every molecule in the list below?
1. CCOc1cc2nc(C3CCOCC3)cn2cc1NC(=O)c1cccc(C(F)F)n1
2. CCOc1cc2nc(C34COC(C)(C3)C4)cn2cc1NC(=O)c1cccc(C(F)F)n1

Result block:
0.53
0.35

###

Sequence of the target: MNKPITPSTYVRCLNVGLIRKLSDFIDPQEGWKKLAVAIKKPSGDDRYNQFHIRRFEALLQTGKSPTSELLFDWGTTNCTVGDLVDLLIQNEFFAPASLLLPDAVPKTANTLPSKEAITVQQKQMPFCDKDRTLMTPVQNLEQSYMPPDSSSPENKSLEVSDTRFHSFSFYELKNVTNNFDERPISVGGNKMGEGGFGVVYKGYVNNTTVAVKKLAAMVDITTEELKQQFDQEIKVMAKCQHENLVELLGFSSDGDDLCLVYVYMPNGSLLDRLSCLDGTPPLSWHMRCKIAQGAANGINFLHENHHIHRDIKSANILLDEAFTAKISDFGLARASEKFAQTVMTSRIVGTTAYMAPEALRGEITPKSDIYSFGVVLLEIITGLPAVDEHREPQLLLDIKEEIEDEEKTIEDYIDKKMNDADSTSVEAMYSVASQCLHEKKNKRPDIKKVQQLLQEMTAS
Please go through the items and note down their log10 IC50.
Recorded IC50 (log10, nM)

Please review the entries below; each comes with its answer.
CC(C)Oc1nc2nc(C34COC(C)(C3)C4)cn2cc1C(=O)Nc1cnn2ccncc12 | 1.21
CC(C)Oc1cc2nc(C34COC(C)(C3)C4)cn2cc1C(=O)Nc1cccc(C(F)F)n1 | -0.77
Cc1cc(NC(=O)c2cccc(C(F)F)n2)cn2cc(C3CCOCC3)nc12 | 2.11
Cc1cc2nc(C3CCOCC3)cn2cc1NC(=O)c1cccc(C(F)F)n1 | 2.18
CCOc1cc2nc(CCCOC)cn2cc1NC(=O)c1cccc(C(F)F)n1 | 0.15

Would you mind giving log10 IC50 for every compound in the list below?
1. CCOc1cc2nc(C3CCOCC3)cn2cc1NC(=O)c1cccc(C(F)F)n1
2. CCOc1cc2nc(C[C@@H]3CCOC3)cn2cc1NC(=O)c1cccc(C(F)F)n1

Result block:
-0.22
-0.05

###

Experiment: Metabolic stability in human hepatocytes assessed as intrinsic clearance
Type: ADME, cell-based, Hepatocyte
Details: read-out: CLH
assay metric: CLint scaled (mL/min/kg)
Give bare numbers, in mL/min/kg.

CCOc1cc2nc(C34COC(C)(C3)C4)cn2cc1NC(=O)c1cccc(C(F)F)n1 | 19
CC(C)Oc1cc2nc(C34COC(C)(C3)C4)cn2cc1C(=O)Nc1cccc(C(F)F)n1 | 5.3
CC(C)Oc1cc2nc(C3CCOCC3)cn2cc1C(=O)Nc1cccc(C(F)F)n1 | 28
CCOc1cc2nc(C3CCOCC3)cn2cc1NC(=O)c1cccc(C(F)F)n1 | 45
Cc1cc2nc(C3CCOCC3)cn2cc1NC(=O)c1cccc(C(F)F)n1 | 18

Would you mind giving CLint scaled for every compound in the list below?
1. CC(C)Oc1cc2nc(C3CCOCC3)cn2cc1NC(=O)c1cccc(C(F)F)n1
2. Cc1cc(NC(=O)c2cccc(C(F)F)n2)cn2cc(C3CCOCC3)nc12
3. Cc1cnc2c(NC(=O)c3cn4cc(C56COC(C)(C5)C6)nc4nc3OC(C)C)cnn2c1
4. COc1cc(NC(=O)c2cccc(C(F)(F)F)n2)cn2cc(C3CCOCC3)nc12

Result block:
1. 75
2. 16
3. 2.5
4. 8

###

Assay: Metabolic stability in human liver microsomes assessed as intrinsic clearance
Assay type: ADME, Microsome
Details: read-out: CLH
Please go through the items and note down their CLint scaled.
One number for each entry, in mL/min/kg.

Please review the entries below; each comes with its answer.
CC(C)Oc1cc2nc(C3CCOCC3)cn2cc1NC(=O)c1cccc(C(F)F)n1 | 30
CCOc1cc2nc(C3CC3)cn2cc1NC(=O)c1cccc(C(F)F)n1 | 20
CCOc1cc2nc(CCCOC)cn2cc1NC(=O)c1cccc(C(F)F)n1 | 55

Proceed to the following item.
The molecule listed as CCOc1cc2nc(C3CCOCC3)cn2cc1NC(=O)c1cccc(C(F)F)n1 shows CLint scaled equal to 27

###

Experiment: Tmax in mouse at 1 mg/kg, po by LC-MS/MS analysis
Type: ADME, organism-based
Conditions: in vivo
assay metric: Tmax

The molecule listed as Cc1cnc2c(NC(=O)c3cn4cc(C56COC(C)(C5)C6)nc4nc3OC(C)C)cnn2c1 shows Tmax equal to 1 h

###

Experiment: Lipophilicity, logD of compound in n-octanol and aqueous buffer at pH 7.4 by RP-HPLC method
Format: physicochemical
Please go through the items and note down their logD.
Give bare numbers.

Please review the entries below; each comes with its answer.
CC(C)Oc1cc2nc(C34COC(C)(C3)C4)cn2cc1C(=O)Nc1cnn2cccnc12 | 2.1
Cc1cnc2c(NC(=O)c3cn4cc(C56COC(C)(C5)C6)nc4c(F)c3OC(C)C)cnn2c1 | 2.5

Would you mind giving logD for every compound in the list below?
1. CC(C)Oc1cc2nc(C34COC(C)(C3)C4)cn2cc1C(=O)Nc1cccc(C(F)F)n1
2. CC(C)Oc1nc2nc(C34COC(C)(C3)C4)cn2cc1C(=O)Nc1cnn2cc(F)cnc12
3. Cc1cnc2c(NC(=O)c3cn4cc(C56COC(C)(C5)C6)nc4nc3OC(C)C)cnn2c1
4. CC(C)Oc1nc2nc(C34COC(C)(C3)C4)cn2cc1C(=O)Nc1cnn2cccnc12

Result block:
4.4
2.4
2.9
2.1

###

Assay: Clearance in cynomolgus monkey at 1 mg/kg, iv by LC-MS/MS analysis
Assay type: ADME, organism-based, Macaca fascicularis
Conditions: in vivo
assay metric: clearance (mL/min/kg)
Answers are plain numbers, in mL/min/kg.

The compound listed as Cc1cnc2c(NC(=O)c3cn4cc(C56COC(C)(C5)C6)nc4nc3OC(C)C)cnn2c1 shows clearance equal to 2.7
